Where these numbers come from: ChEMBL document CHEMBL1139871

Species: Homo sapiens
experiment_summary: Protein binding in human plasma
conditions_used: read-out: PPB (converted)
property_label: fraction unbound
Lab note: jot the number down without any unit.

fraction unbound lookup needed for NC(N)=Nc1nccc2c(Cl)cc(-c3cccc(C(=O)O)c3)cc12 , thanks.
0.002

----------
Reported pKi, Tissue-type plasminogen activator (Homo sapiens).
Remember, pKi is on a log scale: it is -log10 of the molar concentration.

pKi lookup needed for CC(C)[C@@H](NS(=O)(=O)c1ccc2c(Cl)cnc(N=C(N)N)c2c1)C(=O)O , thanks.
4.42

----------
# Ki annotations
study_system: Tissue-type plasminogen activator (Homo sapiens, UniProt P00750)
Sequence (P00750 whole entry): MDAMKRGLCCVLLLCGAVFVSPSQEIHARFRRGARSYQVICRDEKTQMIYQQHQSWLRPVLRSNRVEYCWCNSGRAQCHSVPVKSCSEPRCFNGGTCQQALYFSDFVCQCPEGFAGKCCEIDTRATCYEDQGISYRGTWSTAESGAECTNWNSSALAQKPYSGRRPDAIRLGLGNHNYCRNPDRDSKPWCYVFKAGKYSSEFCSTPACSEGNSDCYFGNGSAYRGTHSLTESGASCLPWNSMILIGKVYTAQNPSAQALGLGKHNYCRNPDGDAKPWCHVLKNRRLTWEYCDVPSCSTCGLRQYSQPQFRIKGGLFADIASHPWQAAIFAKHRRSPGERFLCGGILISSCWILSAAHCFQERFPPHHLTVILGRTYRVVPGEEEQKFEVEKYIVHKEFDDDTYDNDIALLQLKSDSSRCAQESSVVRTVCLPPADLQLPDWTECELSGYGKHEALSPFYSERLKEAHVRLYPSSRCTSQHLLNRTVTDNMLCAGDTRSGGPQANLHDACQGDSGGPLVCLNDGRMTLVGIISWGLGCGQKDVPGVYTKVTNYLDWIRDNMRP

>>> result("NC(N)=Nc1ncc(Cl)c2ccc(S(=O)(=O)Nc3ccccc3C(=O)O)cc12")
"> 100 µM"
>>> result("NC(N)=Nc1nccc2ccc(S(N)(=O)=O)cc12")
"24 µM"
>>> result("NC(N)=Nc1ncc(Cl)c2ccc(S(=O)(=O)Nc3cccc(C(=O)O)c3)cc12")
"> 100 µM"
>>> result("NC(N)=Nc1ncc(Cl)c2ccc(S(=O)(=O)N(CC(=O)O)Cc3ccccc3)cc12")
"> 100 µM"

Ki lookup needed for NC(N)=Nc1nccc2ccc(S(=O)(=O)Nc3ccccc3)cc12 , thanks.
15 µM

Then this molecule: C[C@@H](C(=O)O)N(Cc1ccccc1)S(=O)(=O)c1ccc2c(Cl)cnc(N=C(N)N)c2c1
> 100 µM

Then this molecule: NC(N)=Nc1ncc(Cl)c2ccc(S(=O)(=O)N3CCCC[C@@H]3C(=O)O)cc12
> 100 µM

Then this molecule: NC(N)=Nc1ncc(Cl)c2ccc(S(N)(=O)=O)cc12
> 100 µM

Then this molecule: NC(N)=Nc1ncc(Cl)c2ccc(S(=O)(=O)NC3(C(=O)O)CCC3)cc12
> 100 µM

Then this molecule: NC(N)=Nc1ncc(Cl)c2ccc(S(=O)(=O)N(CC(=O)O)CC3CCCC3)cc12
> 100 µM
